assay: AUC (0 to 24 hrs) in dog at 1 mg/kg, po; type: ADME, organism-based, Canis lupus familiaris; parameters: time < 24 hr, dose 1 mg/kg, route oral; settings: plasma
Measurement Label: AUC(0-t) at 24 h (µM·h)

>>> df
                           structure_string  quantitative_result
0  NC(=O)c1cnc(-c2cnc3c(Nc4ccc(C(F)(F)F)cn4)ccnc3n2)c(C(F)(F)F)c1                  2.7

====

test: Cmax in rat brain of complete Freund's adjuvant-induced inflammation model at 10 mg/kg, po; format: ADME, organism-based; parameters: dose 10 mg/kg, route oral
Measurement Label: Cmax (nM)

>>> df
                           structure_string  quantitative_result
0  NC(=O)c1cnc(-c2cnc3c(Nc4ccc(C(F)(F)F)cn4)ccnc3n2)c(C(F)(F)F)c1                  300
